# Tested on: Escherichia coli TOP10
# protocolDetails: shrunken log2 fold change of peptide-encoding DNA abundance (4.5 h post-induction vs induction); higher = less antimicrobial activity (less host growth inhibition)
# particulars: time post-induction: 4.5 h; library: site-saturation at positions 5, 18, 19, 20
assayEndpoint: shrunken log2 fold change
Reply with the value as a number alone.

[
  {
    "biosequence": "RRIRLRPPRLPRPRPRPYTKPRP",
    "shrunken log2 fold change": 0.119
  },
  {
    "biosequence": "RRIRERPPRLPRPRPRPDETPRP",
    "shrunken log2 fold change": -0.015
  },
  {
    "biosequence": "RRIRNRPPRLPRPRPRPNITPRP",
    "shrunken log2 fold change": -0.693
  },
  {
    "biosequence": "RRIRVRPPRLPRPRPRPLEIPRP",
    "shrunken log2 fold change": -0.073
  },
  {
    "biosequence": "RRIRSRPPRLPRPRPRPEPGPRP",
    "shrunken log2 fold change": 0.197
  }
]

Exam item: State the recorded shrunken log2 fold change for this entry: `RRIRARPPRLPRPRPRPTQFPRP`
Marked response: 0.071

Exam item: State the recorded shrunken log2 fold change for this entry: `RRIRTRPPRLPRPRPRPSDVPRP`
Marked response: -0.83

Exam item: State the recorded shrunken log2 fold change for this entry: `RRIRMRPPRLPRPRPRPGFCPRP`
Marked response: 0.442

Exam item: State the recorded shrunken log2 fold change for this entry: `RRIRFRPPRLPRPRPRPINMPRP`
Marked response: -0.319

Exam item: State the recorded shrunken log2 fold change for this entry: `RRIRIRPPRLPRPRPRPDPIPRP`
Marked response: -0.0427

Exam item: State the recorded shrunken log2 fold change for this entry: `RRIRMRPPRLPRPRPRPCKAPRP`
Marked response: 0.173

Exam item: State the recorded shrunken log2 fold change for this entry: `RRIRRRPPRLPRPRPRPLCNPRP`
Marked response: 0.0189

Exam item: State the recorded shrunken log2 fold change for this entry: `RRIRYRPPRLPRPRPRPRCDPRP`
Marked response: -0.207

Exam item: State the recorded shrunken log2 fold change for this entry: `RRIRVRPPRLPRPRPRPSKFPRP`
Marked response: -0.579

Exam item: State the recorded shrunken log2 fold change for this entry: `RRIRIRPPRLPRPRPRPHCTPRP`
Marked response: -0.0502

###

# Tested on: Escherichia coli TOP10
# protocolDetails: shrunken log2 fold change of peptide-encoding DNA abundance (4.5 h post-induction vs induction); higher = less antimicrobial activity (less host growth inhibition)
# particulars: time post-induction: 4.5 h; library: site-saturation at positions 5, 18, 19, 20
assayEndpoint: shrunken log2 fold change
Reply with the value as a number alone.

[
  {
    "biosequence": "RRIRKRPPRLPRPRPRPMHTPRP",
    "shrunken log2 fold change": 0.192
  },
  {
    "biosequence": "RRIRWRPPRLPRPRPRPPCWPRP",
    "shrunken log2 fold change": 0.347
  },
  {
    "biosequence": "RRIRLRPPRLPRPRPRPTMYPRP",
    "shrunken log2 fold change": 0.163
  },
  {
    "biosequence": "RRIRKRPPRLPRPRPRPKHVPRP",
    "shrunken log2 fold change": 0.473
  },
  {
    "biosequence": "RRIRGRPPRLPRPRPRPKCNPRP",
    "shrunken log2 fold change": 0.541
  },
  {
    "biosequence": "RRIRWRPPRLPRPRPRPRHKPRP",
    "shrunken log2 fold change": -0.0379
  },
  {
    "biosequence": "RRIRFRPPRLPRPRPRPLLAPRP",
    "shrunken log2 fold change": 0.176
  },
  {
    "biosequence": "RRIRPRPPRLPRPRPRPICAPRP",
    "shrunken log2 fold change": 0.0637
  }
]

Exam item: State the recorded shrunken log2 fold change for this entry: `RRIRDRPPRLPRPRPRPYAKPRP`
Marked response: 0.019

Exam item: State the recorded shrunken log2 fold change for this entry: `RRIRLRPPRLPRPRPRPRYRPRP`
Marked response: -0.374

Exam item: State the recorded shrunken log2 fold change for this entry: `RRIRSRPPRLPRPRPRPNRVPRP`
Marked response: -0.048

Exam item: State the recorded shrunken log2 fold change for this entry: `RRIRHRPPRLPRPRPRPVDLPRP`
Marked response: -0.314

Exam item: State the recorded shrunken log2 fold change for this entry: `RRIRDRPPRLPRPRPRPPEQPRP`
Marked response: 0.261

Exam item: State the recorded shrunken log2 fold change for this entry: `RRIRRRPPRLPRPRPRPTWRPRP`
Marked response: 0.667

Exam item: State the recorded shrunken log2 fold change for this entry: `RRIRLRPPRLPRPRPRPWCHPRP`
Marked response: -0.441

###

# Tested on: Escherichia coli TOP10
# protocolDetails: shrunken log2 fold change of peptide-encoding DNA abundance (4.5 h post-induction vs induction); higher = less antimicrobial activity (less host growth inhibition)
# particulars: time post-induction: 4.5 h; library: site-saturation at positions 5, 18, 19, 20
Catalogue of sequences with associated shrunken log2 fold change
Reply with the value as a number alone.

Some entries whose results are on file:
[
  {
    "biosequence": "RRIRMRPPRLPRPRPRPDGFPRP",
    "measurement": 0.0516
  },
  {
    "biosequence": "RRIRFRPPRLPRPRPRPRIWPRP",
    "measurement": 0.051
  },
  {
    "biosequence": "RRIRYRPPRLPRPRPRPNQQPRP",
    "measurement": -0.0105
  }
]

Exam item: State the recorded shrunken log2 fold change for this entry: `RRIRCRPPRLPRPRPRPDDCPRP`
Marked response: 0.112

Exam item: State the recorded shrunken log2 fold change for this entry: `RRIRARPPRLPRPRPRPVRWPRP`
Marked response: 0.88

###

Catalogue of sequences with associated shrunken log2 fold change
# System: Escherichia coli TOP10
# protocolDetails: shrunken log2 fold change of peptide-encoding DNA abundance (4.5 h post-induction vs induction); higher = less antimicrobial activity (less host growth inhibition)
# particulars: time post-induction: 4.5 h; library: site-saturation at positions 5, 18, 19, 20
Reply with the value as a number alone.

Some entries whose results are on file:
[
  {
    "biosequence": "RRIRLRPPRLPRPRPRPQMAPRP",
    "assayEndpoint": "shrunken log2 fold change",
    "measurement": -0.0634
  },
  {
    "biosequence": "RRIRHRPPRLPRPRPRPEMNPRP",
    "assayEndpoint": "shrunken log2 fold change",
    "measurement": -0.0935
  },
  {
    "biosequence": "RRIRHRPPRLPRPRPRPWSMPRP",
    "assayEndpoint": "shrunken log2 fold change",
    "measurement": -0.293
  },
  {
    "biosequence": "RRIRKRPPRLPRPRPRPKTQPRP",
    "assayEndpoint": "shrunken log2 fold change",
    "measurement": 0.422
  }
]

Exam item: State the recorded shrunken log2 fold change for this entry: `RRIRCRPPRLPRPRPRPYKKPRP`
Marked response: 0.104

Exam item: State the recorded shrunken log2 fold change for this entry: `RRIRLRPPRLPRPRPRPFKSPRP`
Marked response: -0.209

Exam item: State the recorded shrunken log2 fold change for this entry: `RRIRMRPPRLPRPRPRPIRCPRP`
Marked response: 0.086

###

Catalogue of sequences with associated shrunken log2 fold change
# System: Escherichia coli TOP10
# protocolDetails: shrunken log2 fold change of peptide-encoding DNA abundance (4.5 h post-induction vs induction); higher = less antimicrobial activity (less host growth inhibition)
# particulars: time post-induction: 4.5 h; library: site-saturation at positions 5, 18, 19, 20
Reply with the value as a number alone.

[
  {
    "biosequence": "RRIRFRPPRLPRPRPRPWFKPRP",
    "shrunken log2 fold change": -0.537
  }
]

Would you kindly look at the next entry?
Exam item: State the recorded shrunken log2 fold change for this entry: `RRIRGRPPRLPRPRPRPTCHPRP`
Marked response: 0.893

###

# System: Escherichia coli TOP10;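 note: peptides expressed intracellularly from a pBAD plasmid library in pooled LB shake-flask culture, induced with 0.3% L-arabinose, DNA abundance read by NGS, three biological replicates, DESeq2 with apeglm shrinkage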
# protocolDetails: shrunken log2 fold change of peptide-encoding DNA abundance (4.5 h post-induction vs induction); higher = less antimicrobial activity (less host growth inhibition)
# particulars: time post-induction: 4.5 h; library: site-saturation at positions 5, 18, 19, 20
Hi, to clarify the labels: YES covers shrunken log2 fold change from -0.003 upward, NO covers anything below -0.003.

[
  {
    "biosequence": "RRIRIRPPRLPRPRPRPMSRPRP",
    "classLabel": "NO"
  },
  {
    "biosequence": "RRIRMRPPRLPRPRPRPINNPRP",
    "classLabel": "NO"
  },
  {
    "biosequence": "RRIRPRPPRLPRPRPRPPLYPRP",
    "classLabel": "YES"
  }
]

Consider now this further sequence.
Exam item: Could you tell me if the measured shrunken log2 fold change of `RRIRKRPPRLPRPRPRPWQLPRP` reaches -0.003 or more?
Marked response: YES
